system: primary hepatocytes isolated from rats; test: Hepatocyte protective effect against substances deriving hepatocyte toxicity (WST-1 viability); format: cell-based; settings: Rattus norvegicus, Hepatocyte, EtOH 2.5%, 24-48 h, read-out: EC50, protective effect against the substances deriving hepatotoxicity
MEASURED_QUANTITY: EC50
Hi, when you answer, please include the unit after the number. Thanks!

Task: State its EC50 on primary hepatocytes isolated from rats: Cc1cc(NC2CCOCC2)c2[nH]c(-c3ccccc3)cc2c1
Output: 9 µM

----------
test system: primary hepatocytes isolated from rats; assay: Hepatocyte protective effect against substances deriving hepatocyte toxicity (WST-1 viability); format: cell-based; conditions: doxorubicin; rat primary hepatocytes; 24-48 h; read-out: EC50, cell protective effects against doxorubicin in hepatocytes
Threshold-based label: EC50 under 400 nM gives condition met, EC50 not under 400 nM gives condition not met.

Task: Given O=C(O)Cc1cccc(-c2cc3cc(Cl)cc(NC4CCCC4)c3[nH]2)c1 , is recorded EC50 strictly lower than 400 nM?
Output: condition met

Task: Given O=C1CN(Cc2cc(NC3CCCC3)c3[nH]c(-c4cccc(F)c4)cc3c2)CCN1 , is recorded EC50 strictly lower than 400 nM?
Output: condition met

----------
# EC50 listing for each entry below
test system: brain cells (SK-N-MC); test: Protective effect when tBHP was treated on brain cells (LDH assay); type: cell-based; settings: Homo sapiens, tBHP 400 uM, 6 h

Cc1ccc(Nc2cc(Cl)cc3c(-c4ccccc4)c[nH]c23)nc1 [Example 115]
260 nM
Cc1cc(N(C)C2CCOCC2)c2[nH]c(-c3ccccc3)cc2c1 [Example 55]
≤ 100 nM
O=C1CN(Cc2cc(NCC3CCOCC3)c3[nH]c(-c4ccccc4)cc3c2)CCN1 [Example 63]
≤ 100 nM

// moving on: another record for EC50
Task: Name the recorded EC50 for O=C1CN(Cc2cc(NC3CCOCC3)c3[nH]c(-c4ccccc4)cc3c2)CCN1 [Example 37] .
Output: ≤ 100 nM

----------
# EC50 listing for each entry below
test system: primary hepatocytes isolated from rats; assay: Hepatocyte protective effect against substances deriving hepatocyte toxicity (WST-1 viability); assay type: cell-based; details: doxorubicin; rat primary hepatocytes; 24-48 h; read-out: EC50, cell protective effects against doxorubicin in hepatocytes
Report as a plain number; the unit nM is understood.

Worked set:
CN1CCC(CNc2cc(F)cc3cc(-c4ccccc4)[nH]c23)CC1
200
COC(=O)Cc1cccc(-c2cc3cc(Cl)cc(NC4CCOCC4)c3[nH]2)c1
430
COc1ccc(-c2cc3cc(CN4CCS(=O)(=O)CC4)cc(NC4CCOCC4)c3[nH]2)cc1
330

// moving on: another record for EC50
Task: Name the recorded EC50 for COc1ccc(-c2n[nH]c3c(NC4CCOCC4)cccc23)cc1 .
Output: 2770
